TARGET_ENTITY: DPP-4 (manufactured by Sigma, derived from porcine kidney) (porcine, UniProt P22411 38-766, limits assumed)
Sequence (P22411 38-766 limits assumed): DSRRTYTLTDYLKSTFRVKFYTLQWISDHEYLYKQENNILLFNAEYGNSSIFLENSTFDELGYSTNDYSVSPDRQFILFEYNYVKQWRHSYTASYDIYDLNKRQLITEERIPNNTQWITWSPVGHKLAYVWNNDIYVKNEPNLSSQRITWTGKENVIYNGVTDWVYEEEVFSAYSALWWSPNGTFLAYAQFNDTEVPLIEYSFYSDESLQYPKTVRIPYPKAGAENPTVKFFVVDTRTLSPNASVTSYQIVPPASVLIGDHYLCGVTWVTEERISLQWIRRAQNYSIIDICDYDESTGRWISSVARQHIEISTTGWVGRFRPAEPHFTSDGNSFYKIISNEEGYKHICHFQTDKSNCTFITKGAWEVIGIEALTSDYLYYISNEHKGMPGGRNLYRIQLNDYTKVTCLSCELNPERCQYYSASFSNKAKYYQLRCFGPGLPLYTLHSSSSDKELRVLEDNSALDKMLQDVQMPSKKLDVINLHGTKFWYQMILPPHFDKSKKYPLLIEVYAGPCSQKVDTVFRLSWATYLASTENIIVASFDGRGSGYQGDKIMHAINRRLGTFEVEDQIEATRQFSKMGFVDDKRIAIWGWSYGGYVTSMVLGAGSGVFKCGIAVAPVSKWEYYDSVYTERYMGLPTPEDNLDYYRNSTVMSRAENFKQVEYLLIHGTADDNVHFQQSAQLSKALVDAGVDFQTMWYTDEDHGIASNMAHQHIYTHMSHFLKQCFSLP
ASSAY_METHOD_TEXT: cell-based or functional assay
Square brackets hold non-standard residues; d marks the D form. Ends that are not written are not given here. Hyp = O=C(O)[C@@H]1C[C@@H](O)CN1
The entries below are paired with their reported Inhibition rate (%) at 0.35 mg/ml time.
Write the value in % as a bare number.

Query :: What value of measured Inhibition rate (%) at 0.35 mg/ml time is listed for GPP [Gly-Pro-Pro] ?
Result :: 10.2

Query :: What value of measured Inhibition rate (%) at 0.35 mg/ml time is listed for GPQ [Gly-Pro-Gln] ?
Result :: 80.2

Query :: What value of measured Inhibition rate (%) at 0.35 mg/ml time is listed for GAIGPS [Gly-Ala-Ile-Gly-Pro-Ser] ?
Result :: 70.4

Query :: What value of measured Inhibition rate (%) at 0.35 mg/ml time is listed for GAVGP [Gly-Ala-Val-Gly-Pro] ?
Result :: 40.9

Query :: What value of measured Inhibition rate (%) at 0.35 mg/ml time is listed for Gly-Pro-[Hyp] [Gly-Pro-Hyp] ?
Result :: 0

Query :: What value of measured Inhibition rate (%) at 0.35 mg/ml time is listed for GPAGP [Gly-Pro-Ala-Gly-Pro] ?
Result :: 95.8

Query :: What value of measured Inhibition rate (%) at 0.35 mg/ml time is listed for GAIGPA [Gly-Ala-Ile-Gly-Pro-Ala] ?
Result :: 71.5

The measured values listed here are drawn from patent US9340579B2.
